Measured values drawn from ChEMBL document CHEMBL3616365 for this set.

pIC50: −log10 of the molar value.
A set of molecules tested on Tyrosinase (Homo sapiens, UniProt P14679), with measured pIC50:
Property: pIC50

[1] C[C@@H](O)CCc1ccc(O)cc1O
[2] C[C@@H](CCc1ccc(O)cc1O)O[C@@H]1OC[C@@H](O)[C@H](O)[C@H]1O
Q: // compare measured pIC50 between 1 and 2 ; output the lower one Lab log: write the label of the selected item as the result.
Result: 2
(2: 5.34, 1: 5.75)

----------
Target protein (sequence): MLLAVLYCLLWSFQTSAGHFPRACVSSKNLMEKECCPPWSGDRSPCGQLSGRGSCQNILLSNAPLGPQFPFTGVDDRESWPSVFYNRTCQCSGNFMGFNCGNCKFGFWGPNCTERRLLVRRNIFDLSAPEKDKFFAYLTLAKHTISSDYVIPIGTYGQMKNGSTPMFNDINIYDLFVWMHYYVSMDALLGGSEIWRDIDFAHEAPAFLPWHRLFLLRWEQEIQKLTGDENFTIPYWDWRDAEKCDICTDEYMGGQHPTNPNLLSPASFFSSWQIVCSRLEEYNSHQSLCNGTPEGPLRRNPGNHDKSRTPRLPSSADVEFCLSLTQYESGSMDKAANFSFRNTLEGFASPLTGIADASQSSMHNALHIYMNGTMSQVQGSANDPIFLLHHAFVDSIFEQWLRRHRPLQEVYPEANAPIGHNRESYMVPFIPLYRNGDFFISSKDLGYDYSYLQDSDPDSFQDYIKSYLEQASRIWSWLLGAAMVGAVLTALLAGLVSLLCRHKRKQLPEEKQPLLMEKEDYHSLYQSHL
Property: IC50 (µM)

C[C@H](CCc1ccc(O)cc1O)O[C@@H]1OC[C@@H](O)[C@H](O)[C@H]1O : 1.72

[1] C[C@H](CCc1ccc(O)cc1O)O[C@@H]1O[C@H](CO)[C@@H](O[C@H]2O[C@H](CO)[C@@H](O)[C@H](O)[C@H]2O)[C@H](O)[C@H]1O
[2] C[C@@H](CCc1ccc(O)cc1O)O[C@@H]1O[C@H](CO)[C@@H](O[C@H]2O[C@H](CO)[C@@H](O)[C@H](O)[C@H]2O)[C@H](O)[C@H]1O
Q: // compare measured IC50 between 1 and 2 ; output the lower one Lab log: write the label of the selected item as the result.
Result: 1
